molecular target: MAGI3_2, Q5TCQ9; experiment: holdup assay; set-up: key: below the threshold = too weak to quantify, mostly under pKd 3.1 to 4; details: plain residues with an end cap or a label only (N-terminal biotin on a linker: ttds)
Sequence (Q5TCQ9 398-503): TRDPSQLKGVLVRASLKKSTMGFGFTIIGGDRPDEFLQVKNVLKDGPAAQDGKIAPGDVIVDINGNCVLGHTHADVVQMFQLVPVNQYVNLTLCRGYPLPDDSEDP
assay-metric: pKd
API doc: respond with a numeric literal and nothing else, no unit.

Below: 4 binders and their reported pKd.
                          binder  assay_metric  value_measured
0      ERKLSSESQV [LRP4, O75096]           pKd            5.17
1   PKTPPTDTSV [KIR3DL3, Q8N743]           pKd            3.71
2  SRPQRTQTQV [HPV67-E6, A4U7F2]           pKd            5.42
3  SSRTRRETQL [HPV16-E6, P03126]           pKd            5.31

API: the following record is the query input.
Requested read-out: pKd. Entry: RSLEEEESQL [GRASP, Q7Z6J2] 3.81
